# Kd annotations
# TARGET OF ASSAY: T1, huNABA-avi-his (hybrid protein N-A1-B3-A2: N and A1 domains of human BGP, B3 domain of human CEA, A2 domain … (human, biotinylated at the avi tag (in vivo, co-transfected biotin ligase)))
# T1 construct: also called NABA-avi-his reagent; biotinylated NABA
# T1 chain: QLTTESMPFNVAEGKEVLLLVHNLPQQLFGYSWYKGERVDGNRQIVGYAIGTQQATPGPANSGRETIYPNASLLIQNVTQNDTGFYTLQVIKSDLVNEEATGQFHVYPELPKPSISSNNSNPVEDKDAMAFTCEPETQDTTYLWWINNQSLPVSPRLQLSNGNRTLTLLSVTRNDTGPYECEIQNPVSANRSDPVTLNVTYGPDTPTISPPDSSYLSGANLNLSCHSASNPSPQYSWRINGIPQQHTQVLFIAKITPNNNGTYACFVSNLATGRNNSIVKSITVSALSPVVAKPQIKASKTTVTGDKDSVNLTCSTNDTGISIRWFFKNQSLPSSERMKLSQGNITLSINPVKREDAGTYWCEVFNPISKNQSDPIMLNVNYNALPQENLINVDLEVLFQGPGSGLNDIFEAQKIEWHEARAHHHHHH
# PROTOCOL: Proteon SPR, antibody analyte on biotinylated NABA (Neutravidin chip)
OUTCOME MEASURE: Kd

>>> result("CH1A1B (Y98A/D99Y) 2F1 (antibody, V domains shown) VH: QVKLQQSGAEVKKPGASVKVSCKASGYTFTEFGMNWVRQAPGQGLEWMGWINTKTGEATYVEEFKGRVTMTTDTSTSTAYMELRSLRSDDTAVYYCARWDFAYYVEAMDYWGQGTTVTVSS VL: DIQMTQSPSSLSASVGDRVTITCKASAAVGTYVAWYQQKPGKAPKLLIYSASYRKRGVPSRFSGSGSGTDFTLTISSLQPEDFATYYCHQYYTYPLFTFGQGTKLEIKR")
"0.507 nM"
>>> result("CH1A1A (Y98A/D99Y) 2F1 (antibody, V domains shown, also called CH1A1A (98/99); CH1A1A (Y98A/D99Y)x2F1) VH: QVQLVQSGAEVKKPGASVKVSCKASGYTFTEFGMNWVRQAPGQGLEWMGWINTKTGEATYVEEFKGRVTFTTDTSTSTAYMELRSLRSDDTAVYYCARWDFAYYVEAMDYWGQGTTVTVSS VL: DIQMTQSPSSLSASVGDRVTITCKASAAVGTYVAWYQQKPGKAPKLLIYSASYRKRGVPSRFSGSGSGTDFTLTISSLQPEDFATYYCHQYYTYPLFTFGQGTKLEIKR")
"0.537 nM"
>>> result("humanized PR1A3 antibody with heavy chain variable region CH7A and light chain variable region 2F1 (antibody, V domains shown, Measured in the bivalent form; also called CH7Ax2F1; parental antibody CH7A) VH: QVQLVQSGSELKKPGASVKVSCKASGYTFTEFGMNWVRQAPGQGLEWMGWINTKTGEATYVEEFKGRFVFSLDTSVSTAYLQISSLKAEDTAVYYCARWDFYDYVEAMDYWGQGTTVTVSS VL: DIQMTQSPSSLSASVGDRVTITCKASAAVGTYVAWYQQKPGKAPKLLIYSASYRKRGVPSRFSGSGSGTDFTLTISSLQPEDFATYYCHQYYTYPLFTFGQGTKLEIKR")
"1.97 nM"
>>> result("antibody with heavy chain CH7A (Y98A/D99Y) and light chain 2F1 (antibody, V domains shown, Bivalent form; also called double mutant (Y98A/D99Y)) VH: QVQLVQSGSELKKPGASVKVSCKASGYTFTEFGMNWVRQAPGQGLEWMGWINTKTGEATYVEEFKGRFVFSLDTSVSTAYLQISSLKAEDTAVYYCARWDFAYYVEAMDYWGQGTTVTVSS VL: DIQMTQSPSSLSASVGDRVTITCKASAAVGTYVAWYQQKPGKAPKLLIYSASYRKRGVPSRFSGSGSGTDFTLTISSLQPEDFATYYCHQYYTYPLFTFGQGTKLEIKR")
"0.465 nM"

Taken from patent US20230365711A1.
